Biological target: full-length human PKCι (Homo sapiens)
Construct: Recombinant, full-length human PKCι expressed in Sf21 insect cells is also commercially available; purchased EMD Millipore; host or cells: Sf21 insect cells (baculovirus)
Sequence (P41743 1-596): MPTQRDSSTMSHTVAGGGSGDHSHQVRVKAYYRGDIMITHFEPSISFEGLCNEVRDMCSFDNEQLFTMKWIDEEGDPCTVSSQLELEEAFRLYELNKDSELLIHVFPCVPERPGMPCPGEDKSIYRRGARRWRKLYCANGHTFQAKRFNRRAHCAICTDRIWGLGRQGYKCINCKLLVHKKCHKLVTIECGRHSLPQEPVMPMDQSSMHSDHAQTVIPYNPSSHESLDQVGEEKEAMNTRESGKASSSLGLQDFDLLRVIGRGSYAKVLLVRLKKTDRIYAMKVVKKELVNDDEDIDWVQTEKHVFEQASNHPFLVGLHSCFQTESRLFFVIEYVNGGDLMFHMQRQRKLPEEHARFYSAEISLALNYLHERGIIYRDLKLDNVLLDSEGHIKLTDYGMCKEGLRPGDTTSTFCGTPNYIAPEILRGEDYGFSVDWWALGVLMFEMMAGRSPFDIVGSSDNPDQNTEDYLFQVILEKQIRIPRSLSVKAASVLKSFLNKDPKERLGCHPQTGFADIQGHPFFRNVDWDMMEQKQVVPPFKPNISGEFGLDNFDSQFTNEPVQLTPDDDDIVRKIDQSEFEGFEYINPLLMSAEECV
Assay: PKCι IC50 IMAP fluorescence polarisation assay, full-length enzyme, 150 μM ATP
Type: biochemical
Details: read-out: IC50 in IMAP assay against full length PKCi at 150 μM ATP
pIC50: −log10 of the molar value.
readout.name: pIC50

Below, each entry is followed by its recorded pIC50 result.
[
  {
    "molecule": "CC1(C)CNCC[C@@H]1Nc1nc(-c2ccnc(N[C@H](C(=O)O)c3ccccc3)c2)nc2cncc(C3CC3)c12",
    "pIC50": "5.00 to 6.00"
  },
  {
    "molecule": "CC1(C)CNCC[C@@H]1Nc1nc(-c2ccnc(Nc3nc(F)cc(F)c3F)c2)nc2cncc(C3CC3)c12",
    "pIC50": "> 7.00"
  },
  {
    "molecule": "FC(F)(F)c1cncc2nc(-c3ccnc4[nH]c5ccccc5c34)nc(NC3CCNCC3)c12",
    "pIC50": "> 7.00"
  }
]

Hi team, please reply with pIC50 for each item in this list.
1. NC1CCN(c2nc(-c3ccnc4[nH]c5ccccc5c34)nc3cncc(C4CCC4)c23)C1 (stereo not shown)
2. CN(c1nc(-c2ccnc(Nc3ncn(Cc4ccccc4)n3)c2)nc2cncc(C3CC3)c12)C1CCNCC1(C)C (racemic)
3. Fc1cccc(Nc2cc(-c3nc(N4CCOC5CNCC54)c4c(C5CC5)cncc4n3)ccn2)n1 (stereo not shown)
4. OC[C@H]1CNCCN1c1nc(-c2ccnc3[nH]c(C(F)(F)F)cc23)nc2cncc(C3CCC3)c12

[out]
> 7.00
> 7.00
> 7.00
6.00 to 7.00

Values compiled from patent US10414763B2.
